Sourced from PubChem BioAssay

Tested on: PRMT1 (protein arginine N-methyltransferase 1)
Assay: PRMT1 binders on small-molecule microarrays, primary screen, biochemical, small-molecule microarray, 635 nm fluorescence (AID 1088);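 also: binding of Prmt1 protein to compounds spotted on small-molecule microarray slides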
Conditions: small-molecule microarray binding, higher = more signal
Returns one of fulfilled or not fulfilled; fulfilled when composite z-score is >= 0.3.

Q: Please tell me: is the compound C=CC[C@@H]1C=C[C@H](ON=C(C)CCC(=O)OC[C@H]2O[C@H](C#Cc3ccccc3)C=C[C@@H]2Oc2ccc(C)cc2)[C@@H](CO)O1 at or over 0.3 in terms of composite z-score?
Result: fulfilled

Q: Continue with COc1cccc([C@H]2Oc3ccc(OC)cc3C(=NOC[C@@H](O)COCc3ccco3)[C@@H]2O)c1
Result: not fulfilled

Q: Continue with CC(CCN1CCCCc2nc(C)c(C)cc21)=NO[C@H](C)c1cn([C@H](CO)Cc2ccccc2)nn1
Result: fulfilled

Q: Continue with CCCCC#C[C@@H]1C=C[C@H](Oc2cc(OC)c(OC)c(OC)c2)[C@@H](COC(=O)OCC)O1
Result: fulfilled

Q: Continue with O=C(NN=C1C[C@@H](O)[C@@H](O)[C@@H]2[C@@H]3C(=O)N(C4CCCCC4)C(=O)[C@@H]3CC[C@@H]12)OCc1ccccc1
Result: not fulfilled

---

Assay: CREB reporter modulators under forskolin, primary screen, cell-based, PC12, CRE-LacZ reporter, forskolin-stimulated (AID 1146);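 also: PC12 cells with 6xCRE LacZ reporter stimulated by forskolin 10 µM; beta-galactosidase reporter signal reflecting CREB driven transcription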
Conditions: luminescence, 4.5 h, higher = more signal, called active from +8 up or from −8 down
Can you tell me z-score for the items I'm about to list?
Reply briefly: the number, and no unit.

Q: Can you share its z-score? I mean this compound: Cc1cc2c(nc1C)CCCN2CC(O)CN1CCCc2nc(C)c(C)cc21
Result: -0.875

Q: Continue with CO[C@H]1COC(=O)CC=C[C@@H](C)[C@H](OC)COC(=O)[C@@H]2CCCN2C(=O)CC=C[C@@H]1C
Result: -0.759

Q: Continue with Cc1ccc(S(=O)(=O)N[C@H]2COC(=O)CC=C[C@@H](C)COC(=O)CC=C[C@@H]2C)cc1
Result: 0.113

Q: Continue with CCOC(=O)C1=NO[C@]2(C=C(Br)C3(OCCCO3)[C@H]3O[C@H]32)C1
Result: 1.65

Q: Continue with CON=Cc1ccc(C(=O)N2[C@H](c3ccc(C)cc3)[C@@H](C)CC[C@H]2C(=O)OC)cc1
Result: -0.158

Q: Continue with COC(=O)[C@@H]1CC[C@H](C)[C@@H](c2ccc(C)cc2)N1C(=O)c1ccc(C=NO[C@@H]2O[C@H](COC(C)=O)[C@@H](OC(C)=O)[C@H](OC(C)=O)[C@H]2OC(C)=O)cc1
Result: -0.138

---

Can you tell me z-score for the items I'm about to list?
Biological target: NADPH oxidase 5 (Homo sapiens) (UniProt Q96PH1)
Sequence (Q96PH1 whole entry, looked up): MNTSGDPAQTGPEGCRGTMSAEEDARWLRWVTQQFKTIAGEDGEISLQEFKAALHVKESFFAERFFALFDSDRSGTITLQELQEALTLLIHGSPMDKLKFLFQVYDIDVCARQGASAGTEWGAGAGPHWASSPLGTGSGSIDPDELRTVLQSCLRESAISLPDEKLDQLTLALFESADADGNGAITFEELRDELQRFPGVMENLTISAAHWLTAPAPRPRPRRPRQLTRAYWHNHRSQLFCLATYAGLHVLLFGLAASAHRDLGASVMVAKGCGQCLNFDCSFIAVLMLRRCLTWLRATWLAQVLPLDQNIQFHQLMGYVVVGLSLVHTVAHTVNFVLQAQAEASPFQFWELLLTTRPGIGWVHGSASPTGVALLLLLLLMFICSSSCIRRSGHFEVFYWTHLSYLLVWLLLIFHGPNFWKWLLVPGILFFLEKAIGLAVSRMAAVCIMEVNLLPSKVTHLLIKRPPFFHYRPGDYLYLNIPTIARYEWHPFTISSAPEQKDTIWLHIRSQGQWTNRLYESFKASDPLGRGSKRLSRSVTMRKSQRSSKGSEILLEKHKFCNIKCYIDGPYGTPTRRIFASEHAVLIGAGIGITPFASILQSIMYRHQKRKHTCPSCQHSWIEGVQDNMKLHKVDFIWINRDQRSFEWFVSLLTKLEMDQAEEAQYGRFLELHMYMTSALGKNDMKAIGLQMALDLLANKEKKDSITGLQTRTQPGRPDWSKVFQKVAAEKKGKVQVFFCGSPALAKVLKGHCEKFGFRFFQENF
Assay: NOX5-dependent H2O2 signal modulators, primary screen, NOX inhibitor project, cell-based, HEK293-NOX5, Amplex Red fluorescence (AID 1161)
Details: HEK293-NOX5, ionomycin, 45 min, higher = more signal
Reply briefly: the number, and no unit.

Q: Can you share its z-score? I mean this molecule: CCC=CCCC(OC(=O)c1ccc(Br)cc1)C1=CCCCC1=O (stereo unspecified)
Result: -3.12

Q: Continue with O=c1n(Cc2cc3c(cc2Cl)OCO3)c(=O)n2n1CC[C@@H]1C(=NOCc3ccccc3)[C@H]3O[C@H]3[C@@H](O)[C@@H]12
Result: 0.615

Q: Continue with C#CCCCON=C1[C@H]2CCn3c(=O)n(-c4ccccc4)c(=O)n3[C@H]2[C@H](O)[C@@H]2O[C@H]12
Result: 0.607

Q: Continue with C[n+]1ccc(-c2ccc(CO)cc2)cc1
Result: -3.04

Q: Continue with CC(C)CON=C1C[C@@H](O)[C@@H](O)[C@@H]2[C@@H]3C(=O)N(C4CCCCC4)C(=O)[C@@H]3CC[C@H]12
Result: -0.246

Q: Continue with COc1ccc(O[C@@H]2[C@H](O)CO[C@@H]2C=Cc2ccccc2)cc1
Result: -2.07

Q: Continue with CCOC(=O)[C@H](Cc1ccccc1)NC(=O)CCC1CC(OC(=O)NCCc2ccc(F)cc2)CC2(CCCC(COC(=O)NCCc3ccccc3OC)O2)O1 (stereo partly specified)
Result: 0.294

Q: Continue with CCCCC#C[C@@H]1C=C[C@H](OC(C)=O)[C@@H](COC(C)=O)O1
Result: 2.02

Q: Continue with C[C@H]1CC[C@H]2C(=O)OC(CO)CN2[C@@H]1c1ccc(Br)cc1 (stereo partly specified)
Result: 0.324

Q: Continue with O=C1[C@H]2[C@H]3[C@H](O)[C@H](O)CC(=NO[C@@H]4O[C@H](CO)[C@@H](O)[C@H](O)[C@H]4O)[C@H]3CC[C@H]2C(=O)N1c1cccc(Oc2ccccc2)c1
Result: -0.54

Q: Continue with O=C1C[C@@H](O)[C@@H](O)[C@@H]2[C@@H]3C(=O)N(C[C@@H]4CCCO4)C(=O)[C@@H]3CC[C@H]12
Result: -0.0473

---

Assay: E. coli acrAB mutant growth effects, primary screen, E. coli filamentation inducers, strain DRC39, OD650, 24 h (AID 1178);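 also: growth measured as culture turbidity by optical density at 650 nm; test concentration not given here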
Details: higher = more signal, called active from +8 up or from −8 down
quantity_measured: z-score
Reply briefly: the number, and no unit.

Q: Can you share its z-score? I mean this molecule: CC(=O)Nc1ccc([C@@H]2N[C@H](C(=O)O)CC[C@H]2C)cc1
Result: 0.909

Q: Continue with CCOC(=O)[C@H](CC(C)C)NC(=O)CCC1CC(OC(=O)NCc2ccc3c(c2)OCO3)CC2(CCCC(COC(=O)NCc3cccc(C(F)(F)F)c3)O2)O1 (some centres not stated)
Result: -0.718

Q: Continue with CC(=O)OC[C@H]1OC(ON=CC[C@@H]2C=C[C@H](OC(C)=O)[C@@H](COC(C)=O)O2)[C@H](OC(C)=O)[C@@H](OC(C)=O)[C@@H]1OC(C)=O (some centres not stated)
Result: 0.938

Q: Continue with COc1cccc([C@H]2Oc3ccc(OC)cc3C(=NO[C@H](C)c3cn([C@H](CO)Cc4ccccc4)nn3)[C@@H]2O)c1
Result: 0.753

Q: Continue with Cc1ccc(S(=O)(=O)NC(CCc2ccccc2)CC(=O)C(C)(C)C)cc1 (configuration not stated)
Result: 0.628

Q: Continue with CCOC(=O)[C@H](CC(C)C)NC(=O)CCC1CC(OC(=O)NCc2cccc3ccccc23)CC2(CCCC(COC(=O)NCCOC)O2)O1 (some centres not stated)
Result: 0.521

Q: Continue with CCOC(=O)[C@H](CC(C)C)NC(=O)CCC1CC(OC(=O)NCCc2ccc(F)cc2)CC2(CCCC(COC(=O)NCC(c3ccccc3)c3ccccc3)O2)O1 (some centres not stated)
Result: 0.113

Q: Continue with Cc1cc2c(nc1C)CCCCN2CC(C)ON=C[C@@H](C)[C@H](OCc1ccccc1)C(C)C (some centres not stated)
Result: -0.152

Q: Continue with COc1ccc(O[C@H]2C=C[C@@H](c3ccccc3)O[C@@H]2CON=CC[C@@H]2C=C[C@H](OC(C)=O)[C@@H](COC(C)=O)O2)cc1
Result: 0.503

Q: Continue with CC(CCN1CCCCc2nc(C)c(C)cc21)=NOC[C@@H](O)COCc1ccco1
Result: -0.0051

Q: Continue with CC(CCN1CCCCc2nc(C)c(C)cc21)=NO[C@H](C)c1cn([C@H](CO)Cc2ccccc2)nn1
Result: -0.894

Q: Continue with COc1ccc(O[C@H]2C=C[C@@H](c3ccccc3)O[C@@H]2COC(=O)CCC(C)=NOC[C@@H](O)[C@H]2O[C@@H]3OC(C)(C)O[C@@H]3[C@H]2O)cc1
Result: 1.18

Q: Continue with CON=CC[C@@H]1C=C[C@H](OC(C)=O)[C@@H](COC(C)=O)O1
Result: 0.736

Q: Continue with CCN1C(=O)[C@H]2[C@H]3[C@H](O)[C@H](O)CC(=O)[C@@H]3CC[C@H]2C1=O
Result: -0.307

Q: Continue with COc1cccc([C@H]2Oc3ccc(OC)cc3C(=NOC[C@@H](O)COCc3ccco3)[C@@H]2O)c1
Result: 0.0207

Q: Continue with CO[C@H]1COC(=O)[C@H](C)NC(=O)[C@@H](C)COC(=O)[C@H]2CCCN2C(=O)CC=C[C@H]1C
Result: 0.491

Q: Continue with CO[C@H]1COC(=O)[C@@H](Cc2ccccc2)NC(=O)[C@@H](C)COC(=O)CCC[C@@H]1C
Result: 0.285

Q: Continue with O=C(NN=C1C[C@@H](O)[C@@H](O)[C@@H]2[C@@H]3C(=O)N(C[C@@H]4CCCO4)C(=O)[C@@H]3CC[C@H]12)OCc1ccccc1
Result: 0.593

Q: Continue with CO[C@H](C1CCCCC1)[C@H](C)C=CCC(=O)OCCCc1ccccc1
Result: -0.778

Q: Continue with CON=C[C@@H](C)[C@H](OCc1ccccc1)C(C)C
Result: -1.29

Q: Continue with C=CC[C@@H]1C=C[C@H](ON=C(C)CCC(=O)OC[C@H]2O[C@H](C#Cc3ccccc3)C=C[C@@H]2Oc2ccc(C)cc2)[C@@H](CO)O1
Result: 0.911

Q: Continue with CC(C)=CCCC(C)=CCON=C1C[C@@H](O)[C@@H](O)[C@@H]2[C@@H]3C(=O)N(Cc4ccccc4)C(=O)[C@@H]3CC[C@H]12
Result: -0.366
